From: paper PMC11314343

Assay: Pharmacokinetic comparison in Wistar rats after oral administration
Conditions: both, Wistar, rat, plasma, po, 25 mg/kg
readout type: Cmax (ng/mL)

INSERT INTO measurements (item_smiles, readout_type, reported_value) VALUES
  ('CCCSc1ccc2nc(NC(=O)OC)[nH]c2c1', 'Cmax', 69.6);

====

Experiment: Pharmacokinetic comparison in Wistar rats after oral administration
Settings: both, Wistar, rat, in vivo, po, 25 mg/kg
readout type: half-life

INSERT INTO assay_data (item_smiles, readout_type, reported_value) VALUES
  ('CCCSc1ccc2nc(NC(=O)OC)[nH]c2c1', 'half-life', '5.98 h');

====

Experiment: Intrinsic dissolution rate (IDR)
Format: physicochemical
Conditions: pH 7.4 buffer, 37 °C
# IDR values compiled below
readout type: IDR (mg·cm^−2·min^−1)

INSERT INTO results (molecule, reported_value) VALUES
  ('CCCSc1ccc2[nH]c(NC(=O)OC)nc2c1.O=C(O)C(O)C(O)C(=O)O [ABZ-DTA, albendazole D-tartrate]', 0.0008),
  ('CCCSc1ccc2[nH]c(NC(=O)OC)nc2c1.O=C(O)C=CC(=O)O [ABZ-FMA, albendazole fumarate]', 0.0009),
  ('CCCSc1ccc2[nH]c(NC(=O)OC)nc2c1.Cl [ABZ-HCl, albendazole hydrochloride]', 0.0041),
  ('CCCSc1ccc2nc(NC(=O)OC)[nH]c2c1 [ABZ, Albendazole]', 0.0004);

====

Assay: Pharmacokinetic comparison in Wistar rats after oral administration
Conditions: both, Wistar, rat, plasma, po, 25 mg/kg
readout type: Tmax (h)

INSERT INTO measurements (compound, reported_value) VALUES
  ('CCCSc1ccc2nc(NC(=O)OC)[nH]c2c1 [ABZ, Albendazole]', 2.54);

====

Assay: Pharmacokinetic comparison in Wistar rats after oral administration
Settings: both, Wistar, rat, plasma, po, 25 mg/kg
readout type: AUC(0-t)

INSERT INTO results (compound, reported_value) VALUES
  ('CCCSc1ccc2nc(NC(=O)OC)[nH]c2c1 [ABZ, Albendazole]', '352 ng·h/mL');

====

Assay: Intrinsic dissolution rate (IDR)
Assay type: physicochemical
Settings: pH 2 buffer, 37 °C
readout type: IDR (mg·cm^−2·min^−1)

INSERT INTO results (compound, readout_type, reported_value) VALUES
  ('CCCSc1ccc2[nH]c(NC(=O)OC)nc2c1.Cl [ABZ-HCl, albendazole hydrochloride]', 'IDR', 0.1128),
  ('CCCSc1ccc2nc(NC(=O)OC)[nH]c2c1 [ABZ, Albendazole]', 'IDR', 0.0096),
  ('CCCSc1ccc2[nH]c(NC(=O)OC)nc2c1.O=C(O)C=CC(=O)O [ABZ-FMA, albendazole fumarate]', 'IDR', 0.0328),
  ('CCCSc1ccc2[nH]c(NC(=O)OC)nc2c1.O=C(O)C(O)C(O)C(=O)O [ABZ-DTA, albendazole D-tartrate]', 'IDR', 0.0730);

====

Assay: Dynamic vapor sorption (DVS), moisture adsorption isotherms
Type: physicochemical
Conditions: 25 °C, at 90% RH
readout type: water adsorption (%)

INSERT INTO results (molecule, reported_value) VALUES
  ('CCCSc1ccc2[nH]c(NC(=O)OC)nc2c1.O=C(O)C(O)C(O)C(=O)O [ABZ-DTA, albendazole D-tartrate]', 70.15),
  ('CCCSc1ccc2[nH]c(NC(=O)OC)nc2c1.Cl [ABZ-HCl, albendazole hydrochloride]', 37.65),
  ('CCCSc1ccc2nc(NC(=O)OC)[nH]c2c1', 3.86),
  ('CCCSc1ccc2[nH]c(NC(=O)OC)nc2c1.O=C(O)C=CC(=O)O [ABZ-FMA, albendazole fumarate]', 6.72);
